TEST TARGET: T1, Human CD19-his protein (human, UniProt P15391 20-291)
T1 construct: bought protein; also called human CD19 protein; recombinant human CD19-His; not shown: His tag
T1 sequence (looked up): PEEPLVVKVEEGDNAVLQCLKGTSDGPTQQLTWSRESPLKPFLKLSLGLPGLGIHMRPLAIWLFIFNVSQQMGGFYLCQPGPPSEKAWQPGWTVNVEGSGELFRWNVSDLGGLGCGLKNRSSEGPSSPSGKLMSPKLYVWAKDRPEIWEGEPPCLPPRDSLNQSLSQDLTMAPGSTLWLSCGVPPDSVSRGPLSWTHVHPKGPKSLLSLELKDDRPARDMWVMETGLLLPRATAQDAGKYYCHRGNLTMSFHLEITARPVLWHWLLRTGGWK
EXPERIMENT: ELISA, antibody at 0.01 nM
REPORTED METRIC: OD450
// return a plain number; no unit text

Completed entries (count: 2):
F3.124.7 (antibody, human IgG1, V domains shown, human-murine chimeric antibody, human IgG1) VH: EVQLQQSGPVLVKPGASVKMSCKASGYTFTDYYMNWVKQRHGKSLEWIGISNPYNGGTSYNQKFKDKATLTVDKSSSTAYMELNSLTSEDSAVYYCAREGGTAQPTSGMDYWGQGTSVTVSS VL: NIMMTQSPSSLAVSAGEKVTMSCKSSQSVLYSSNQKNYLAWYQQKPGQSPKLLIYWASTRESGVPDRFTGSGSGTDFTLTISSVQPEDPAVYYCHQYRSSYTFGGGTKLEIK
0.81
F6.5.20 (antibody, human IgG1, V domains shown, human-murine chimeric antibody, human IgG1) VH: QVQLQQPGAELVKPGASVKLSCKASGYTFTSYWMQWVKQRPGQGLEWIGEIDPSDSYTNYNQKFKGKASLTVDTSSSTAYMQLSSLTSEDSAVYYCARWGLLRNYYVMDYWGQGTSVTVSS VL: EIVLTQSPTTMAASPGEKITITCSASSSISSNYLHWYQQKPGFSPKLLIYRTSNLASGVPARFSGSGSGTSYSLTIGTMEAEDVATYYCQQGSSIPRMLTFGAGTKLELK
0.1

Ask: I have this binder here, F4.276.12 (antibody, human IgG1, V domains shown, human-murine chimeric antibody, human IgG1) VH: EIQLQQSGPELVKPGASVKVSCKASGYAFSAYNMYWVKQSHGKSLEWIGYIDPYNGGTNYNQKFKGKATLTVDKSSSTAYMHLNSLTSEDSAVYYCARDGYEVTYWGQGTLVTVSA VL: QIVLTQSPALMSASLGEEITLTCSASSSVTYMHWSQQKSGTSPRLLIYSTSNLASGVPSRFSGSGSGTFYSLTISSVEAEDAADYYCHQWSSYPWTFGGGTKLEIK , and I need its recorded OD450.
Result: 0.13
